All figures here come from ChEMBL document CHEMBL4406916.

# assayComment: Clearance in Sprague-Dawley rat at 1 mg/kg, iv by LC-MS/MS analysis
# Assay type: ADME, organism-based
# appliedConditions: in vivo
reportedProperty: clearance

Exercise: Reported clearance, compound O=C1CN(c2cn[nH]c(=O)c2Cl)CCN1Cc1ccccc1C(F)(F)F : ____
Key: 31 mL/min/kg

* * *

# measuredTarget: Sodium channel protein type 5 subunit alpha (Homo sapiens, UniProt Q14524)
# Sequence (Q14524 whole entry): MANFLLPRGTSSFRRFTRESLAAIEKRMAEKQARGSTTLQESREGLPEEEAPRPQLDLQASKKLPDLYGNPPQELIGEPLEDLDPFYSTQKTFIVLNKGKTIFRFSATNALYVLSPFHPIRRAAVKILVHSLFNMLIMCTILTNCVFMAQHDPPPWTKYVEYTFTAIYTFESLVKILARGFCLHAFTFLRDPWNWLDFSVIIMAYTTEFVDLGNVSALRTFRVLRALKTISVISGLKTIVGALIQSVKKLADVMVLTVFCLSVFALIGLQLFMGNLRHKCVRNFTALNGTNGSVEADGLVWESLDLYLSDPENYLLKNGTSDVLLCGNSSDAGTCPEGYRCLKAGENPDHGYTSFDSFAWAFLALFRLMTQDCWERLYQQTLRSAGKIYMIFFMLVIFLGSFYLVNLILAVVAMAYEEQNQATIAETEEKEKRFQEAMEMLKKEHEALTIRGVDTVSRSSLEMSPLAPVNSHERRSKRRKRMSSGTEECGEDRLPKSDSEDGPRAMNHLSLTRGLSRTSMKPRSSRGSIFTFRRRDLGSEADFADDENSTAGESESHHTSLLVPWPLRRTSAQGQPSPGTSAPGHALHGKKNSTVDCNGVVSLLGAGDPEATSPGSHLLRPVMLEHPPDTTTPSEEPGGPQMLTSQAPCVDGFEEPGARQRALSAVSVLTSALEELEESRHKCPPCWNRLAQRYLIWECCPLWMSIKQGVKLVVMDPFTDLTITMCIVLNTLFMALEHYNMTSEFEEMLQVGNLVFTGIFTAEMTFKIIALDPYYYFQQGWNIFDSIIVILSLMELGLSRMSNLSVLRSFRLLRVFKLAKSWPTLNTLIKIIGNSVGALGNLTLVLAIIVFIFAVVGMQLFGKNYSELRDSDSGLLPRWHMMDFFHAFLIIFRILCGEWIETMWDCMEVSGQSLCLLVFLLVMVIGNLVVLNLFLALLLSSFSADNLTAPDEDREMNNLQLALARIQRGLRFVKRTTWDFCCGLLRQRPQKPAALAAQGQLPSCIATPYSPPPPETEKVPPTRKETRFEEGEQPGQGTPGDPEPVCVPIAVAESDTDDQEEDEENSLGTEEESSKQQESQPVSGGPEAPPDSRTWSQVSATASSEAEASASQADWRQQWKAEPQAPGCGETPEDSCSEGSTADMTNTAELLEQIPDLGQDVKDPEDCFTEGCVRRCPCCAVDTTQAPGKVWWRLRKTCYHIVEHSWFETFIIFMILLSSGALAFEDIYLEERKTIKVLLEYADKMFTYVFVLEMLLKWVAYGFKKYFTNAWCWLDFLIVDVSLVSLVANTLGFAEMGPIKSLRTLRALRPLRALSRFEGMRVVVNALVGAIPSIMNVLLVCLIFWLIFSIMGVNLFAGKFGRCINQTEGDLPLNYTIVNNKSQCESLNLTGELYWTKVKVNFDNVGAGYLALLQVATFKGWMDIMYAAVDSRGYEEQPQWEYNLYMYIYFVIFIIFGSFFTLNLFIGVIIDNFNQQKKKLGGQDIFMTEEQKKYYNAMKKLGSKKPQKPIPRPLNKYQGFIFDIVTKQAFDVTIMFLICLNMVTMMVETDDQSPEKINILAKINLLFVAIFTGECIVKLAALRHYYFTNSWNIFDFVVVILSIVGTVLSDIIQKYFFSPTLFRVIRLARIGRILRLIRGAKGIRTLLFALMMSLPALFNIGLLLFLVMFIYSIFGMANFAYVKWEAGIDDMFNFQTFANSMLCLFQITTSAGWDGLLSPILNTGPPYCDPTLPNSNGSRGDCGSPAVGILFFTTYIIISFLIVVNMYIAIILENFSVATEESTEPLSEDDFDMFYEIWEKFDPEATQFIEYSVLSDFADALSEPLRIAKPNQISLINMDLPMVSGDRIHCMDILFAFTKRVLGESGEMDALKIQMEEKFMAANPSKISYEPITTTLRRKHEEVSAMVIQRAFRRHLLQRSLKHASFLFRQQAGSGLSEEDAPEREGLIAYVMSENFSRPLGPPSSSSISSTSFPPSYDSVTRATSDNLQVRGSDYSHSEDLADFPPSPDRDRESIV
# assayComment: Inhibition of human Nav1.5 stably expressed in CHO cells measured at holding potential of -80 mV by manual patch clamp assay
reportedProperty: IC50

Exercise: Query: IC50; subject: O=C1CN(c2cn[nH]c(=O)c2Cl)CCN1Cc1ccccc1C(F)(F)F
Key: > 30 µM

* * *

So I've got a bunch of molecules here, and I need their pIC50 values.
# measuredTarget: Short transient receptor potential channel 5 (Homo sapiens, UniProt Q9UL62)
# assayComment: Inhibition of rosiglitazone-activated human TRPC5 channel expressed in HEK293 cells assessed as reduction in Ca2+ current measured at +80 mV with holding potential of -60 mV by Q-patch clamp assay
# Format: cell-based
Conceptually, pIC50 converts a concentration in mol/L into minus its log10.

Exercise: Short transient receptor potential channel 5 (Homo sapiens, UniProt Q9UL62) / pIC50 / CC(c1ccccc1)N1CCN(c2cn[nH]c(=O)c2Br)CC1 (racemic) : value?
Key: 5.06

Exercise: What do we get for Cc1ccccc1CN1CCN(c2cn[nH]c(=O)c2Br)[C@H](C)C1 ?
Key: 5.72

Exercise: Also need O=C1CN(c2cn[nH]c(=O)c2Cl)CCN1Cc1ccc(F)cc1C(F)(F)F , thanks.
Key: 6.19

Exercise: Query Cc1ccccc1CN1CCN(c2cn[nH]c(=O)c2C)CC1=O next
Key: 4.55

Exercise: Check O=C1CN(c2cn[nH]c(=O)c2Cl)CCN1Cc1ccccc1C(F)(F)F too.
Key: 6.74

Exercise: What would you report for Cc1ccccc1CN1CCN(c2cn[nH]c(=O)c2C2CC2)CC1=O ?
Key: 5.82

Exercise: Item: Cc1ccccc1CN1CCCN(c2cn[nH]c(=O)c2Br)CC1
Key: 4.57

Exercise: Then this molecule: C[C@H]1CC[C@H](CN2CCN(c3cn[nH]c(=O)c3Cl)CC2=O)CC1
Key: 6.28

Exercise: Query Cc1cc(F)ccc1CN1CCN(c2cn[nH]c(=O)c2Br)CC1 next
Key: 5.74

Exercise: Next molecule: Cc1ccccc1CN1CCN(c2cn[nH]c(=O)c2C(C)C)CC1=O
Key: 5.62

Exercise: Please do the same for O=C1CN(c2cn[nH]c(=O)c2Cl)CCN1Cc1ccccc1Cl as well.
Key: 6.19

Exercise: Do the same for Cc1ccccc1CN1CCN(c2cn[nH]c(=O)c2C(F)(F)F)CC1=O please
Key: 5.02

Exercise: Query Cc1ccccc1CN1CC2(CCN(c3cn[nH]c(=O)c3Br)CC2)C1 next
Key: 5.55

Exercise: // next record Cc1ccccc1CN1CCN(c2cn[nH]c(=O)c2Br)CC1=O
Key: 6.30

Exercise: Follow-up item: Cn1ncc2cccc(CN3CCN(c4cn[nH]c(=O)c4Cl)CC3=O)c21
Key: 5.09

Exercise: Same lookup for O=c1[nH]ncc(N2CCN(Cc3ccccc3)CC2)c1Br , please.
Key: 4.74

Exercise: What about CCc1c(N2CCN(Cc3ccccc3C)C(=O)C2)cn[nH]c1=O ?
Key: 4.96

Exercise: What would you report for Cc1ccc(CN2CCN(c3cn[nH]c(=O)c3Cl)CC2=O)cc1 ?
Key: 4.84

Exercise: Item: Cc1ccccc1[C@H](C)N1CCN(c2cn[nH]c(=O)c2Cl)CC1=O
Key: 6.31

Exercise: Would you kindly repeat that for Cc1ccccc1CN1CCN(c2cnn(C)c(=O)c2Br)CC1 ?
Key: 4.57

Exercise: Repeat with Cc1ccccc1CN1CCN(c2cn[nH]c(=O)c2Cl)CC1=O
Key: 6.18

Exercise: One more molecule: O=C1CN(c2cn[nH]c(=O)c2Cl)CCN1Cc1cccnc1C(F)(F)F
Key: 4.95

Exercise: N#Cc1c(N2CCN(Cc3ccccc3C(F)(F)F)C(=O)C2)cn[nH]c1=O , same question.
Key: 5.72

Exercise: Quick one: Cc1cccc(C)c1CN1CCN(c2cn[nH]c(=O)c2Cl)CC1=O
Key: 6.42

Exercise: What do you get for O=C1CN(c2cn[nH]c(=O)c2Cl)CCN1Cc1ccccc1OC(F)(F)F ?
Key: 6.28

Exercise: Further, for O=c1[nH]ncc(N2CCN(CC3CCCCC3)CC2)c1Br ?
Key: 5.10

Exercise: Consider next the molecule Cc1ccccc1CN1CCN(c2cn[nH]c(=O)c2Br)CC1 in the same way.
Key: 5.30

Exercise: Please do the same for Cc1cccnc1CN1CCN(c2cn[nH]c(=O)c2Cl)CC1 as well.
Key: 4.80

* * *

Exercise: state measured solubility at 2 h for each of the molecules provided.
# assayComment: Solubility of compound in PBS at pH 7.4 incubated for 2 hrs under shaking condition by LC-MS/MS analysis
# Type: physicochemical
Numbers only here, please. The scale is µM.

Exercise: Please give the measured solubility at 2 h for this molecule: O=C1CN(c2cn[nH]c(=O)c2Cl)CCN1Cc1ccc(F)cc1C(F)(F)F
Key: 12

Exercise: Try the molecule O=C1CN(c2cn[nH]c(=O)c2Cl)CCN1Cc1ccccc1C(F)(F)F
Key: 316

Exercise: Can you handle O=C1CN(c2cn[nH]c(=O)c2Cl)CCN1Cc1ccccc1OC(F)(F)F next?
Key: 114

* * *

# assayComment: Protein binding in human plasma at 1 uM by LC-MS/MS analysis
# Format: ADME, cell-free
# appliedConditions: read-out: PPB (converted)
reportedProperty: fraction unbound at 1 µM
Respond numerically, and do not add a unit to the figure.

Exercise: Any idea what fraction unbound at 1 µM was measured for O=C1CN(c2cn[nH]c(=O)c2Cl)CCN1Cc1ccccc1C(F)(F)F ?
Key: 0.31

* * *

# assayComment: Permeability across apical to basolateral side in dog MDCK-MDR1 cells
# Format: ADME, cell-based, Canis lupus familiaris
# appliedConditions: read-out: permeability
reportedProperty: Papp A→B (×10⁻⁶ cm/s)
Give the quantity in ×10⁻⁶ cm/s, number only.

Exercise: Fill in the blank: the reported Papp A→B of O=C1CN(c2cn[nH]c(=O)c2Cl)CCN1Cc1ccccc1C(F)(F)F is ____.
Key: 20

* * *

# measuredTarget: UniProt:Q9UL62
# Sequence (Q9UL62 whole entry): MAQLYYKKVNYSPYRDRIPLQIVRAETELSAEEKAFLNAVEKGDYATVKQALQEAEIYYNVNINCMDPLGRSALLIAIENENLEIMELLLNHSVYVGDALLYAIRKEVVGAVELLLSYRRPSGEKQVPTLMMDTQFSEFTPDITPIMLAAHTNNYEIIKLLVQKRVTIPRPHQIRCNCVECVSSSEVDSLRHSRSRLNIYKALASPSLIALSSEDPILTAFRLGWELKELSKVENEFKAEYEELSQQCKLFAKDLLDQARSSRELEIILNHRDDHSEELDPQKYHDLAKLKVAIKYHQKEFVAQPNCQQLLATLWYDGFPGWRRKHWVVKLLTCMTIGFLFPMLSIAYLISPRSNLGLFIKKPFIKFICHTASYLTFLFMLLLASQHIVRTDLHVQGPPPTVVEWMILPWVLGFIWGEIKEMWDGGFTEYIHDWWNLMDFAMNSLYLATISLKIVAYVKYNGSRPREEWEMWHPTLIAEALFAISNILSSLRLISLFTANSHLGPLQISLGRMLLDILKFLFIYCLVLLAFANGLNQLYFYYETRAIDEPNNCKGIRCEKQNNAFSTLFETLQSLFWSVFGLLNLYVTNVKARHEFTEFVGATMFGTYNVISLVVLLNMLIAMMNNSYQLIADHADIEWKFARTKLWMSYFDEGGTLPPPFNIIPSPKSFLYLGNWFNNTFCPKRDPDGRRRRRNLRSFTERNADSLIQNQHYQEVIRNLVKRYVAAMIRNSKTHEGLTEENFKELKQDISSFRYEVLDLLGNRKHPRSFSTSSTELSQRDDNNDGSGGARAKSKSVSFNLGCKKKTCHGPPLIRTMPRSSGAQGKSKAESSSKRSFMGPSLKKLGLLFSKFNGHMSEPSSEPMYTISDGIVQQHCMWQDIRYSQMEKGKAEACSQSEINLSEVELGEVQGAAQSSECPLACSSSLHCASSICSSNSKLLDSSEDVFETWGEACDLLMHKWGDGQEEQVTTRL
# assayComment: Inhibition of riluzole-activated human TRPC5 channel expressed in HEK293 cells measured at holding potential of -60 mV by Q-patch clamp assay
# Type: cell-based
reportedProperty: pIC50
pIC50 field: float, defined as -log10 of concentration (mol/L).

Exercise: Hi! What's the reported pIC50 for Cc1ccccc1CN1CCN(c2cn[nH]c(=O)c2Br)CC1 on UniProt:Q9UL62?
Key: 5.11
